Please respond with reported normalized growth for every item in the list.
- PROTOCOL: chemical genetic growth profiling, strain panel (AID 1159580);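 also: tested at 20 µM; growth read once vehicle control cultures reached saturation at 30 °C; 1 = growth at the plate median or of vehicle wells; lower values mean less growth of the strain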
- CONDITION: S. cerevisiae deletion strains, growth OD, locus YLR027C, strain aat2, hits give low values
The whole screen tested about 5,500 compounds, of which about 2,000 (36%) were called active. Roughly 18% stayed inconclusive and do not appear here. The list shows a part of the results.
Give bare numbers.

Examples from the recorded data:
compound="CCCCC1C(=O)N(c2ccccc2)N(c2ccc(O)cc2)C1=O (stereo unspecified)" value_reported=0.994
compound=Cc1[nH]ccc2c1[nH]c1cc(=O)ccc12 value_reported=0.998
compound="Oc1ccc2c(c1)OCC1(O)Cc3cc(O)c(O)cc3C21 (stereo unspecified)" value_reported=1.01
compound="CC(=O)Oc1ccc2c(c1OC(C)=O)OCC1(O)Cc3c(cc(OC(C)=O)c(OC(C)=O)c3OC(C)=O)C21 (stereo unspecified)" value_reported=1.01
compound=C[C@@H]([C@H](O)c1ccccc1)N(C)C value_reported=1.01

Alright, here's another compound for you.
What does the record list as normalized growth for COc1cc2occc2c2oc(=O)ccc12 ? 1.01

---

- PROTOCOL: chemical genetic growth profiling, strain panel (AID 1159580);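 also: tested at 20 µM; growth read once vehicle control cultures reached saturation at 30 °C; 1 = growth at the plate median or of vehicle wells; lower values mean less growth of the strain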
- CONDITION: S. cerevisiae deletion strains, growth OD, locus YLR370C, strain arc18, hits give low values
Among all 5,500 compounds or so, about 2,000 (36%) were called active. Inconclusive results (about 18%) are left out. Some of the results follow.
Please respond with reported normalized growth for every item in the list.
One number for each entry.

Examples from the recorded data:
compound="Cc1ccccc1OCC(O)CO (stereo unspecified)" readout="normalized growth" value_reported=0.979
compound=CCOCN(C(=O)CCl)c1c(C)cccc1CC readout="normalized growth" value_reported=0.995
compound=COc1ccc(Cl)cc1C(=O)NCCc1ccc(S(=O)(=O)NC(=O)NC2CCCCC2)cc1 readout="normalized growth" value_reported=0.998
compound="CC(C)(C)NCC(O)c1cc(O)cc(O)c1 (stereo unspecified)" readout="normalized growth" value_reported=0.975

Working through the 2 compounds below one at a time, give normalized growth for each.
1. Cc1cc(C2CCCCC2)n(O)c(=O)c1
2. OC1CC2CCCC(C1)N2Cc1ccccc1 (stereo unspecified)

[0.0637, 1.01]

---

- PROTOCOL: chemical genetic growth profiling, strain panel (AID 1159580);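 also: tested at 20 µM; growth read once vehicle control cultures reached saturation at 30 °C; 1 = growth at the plate median or of vehicle wells; lower values mean less growth of the strain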
- CONDITION: S. cerevisiae deletion strains, growth OD, locus YPR025C, strain CCL1, hits give low values
Among all 5,500 compounds or so, about 2,000 (36%) were called active. Not shown: some 18% with an inconclusive outcome. This is one part of the list.
Please respond with reported normalized growth for every item in the list.
Numbers only.

Examples from the recorded data:
compound=Oc1c(Cl)cc(Cl)cc1/C=N\NC(=S)Nc1cc(C(F)(F)F)cc(C(F)(F)F)c1 readout="normalized growth" value_reported=0.893
compound=CCNC(=S)N/N=C\c1cc(Cl)cc(Cl)c1O readout="normalized growth" value_reported=0.923
compound=O=C(Nc1ccccc1)Nc1ccc(Cl)cc1[N+](=O)[O-] readout="normalized growth" value_reported=0.979
compound=O=C1C(Cl)=C(Oc2cc(Cl)c(Cl)cc2Cl)C(=O)c2ccccc21 readout="normalized growth" value_reported=0.543
compound=O=C1/C(=C/c2ccccn2)CCc2ccccc21 readout="normalized growth" value_reported=0.945
compound=COc1ccccc1NC(=S)N/N=C\c1ccccc1O readout="normalized growth" value_reported=0.968

Working through the 2 compounds below one at a time, give normalized growth for each.
1. Cc1ccc(C)n1-c1ccc(/C=C2/C(=O)Nc3ccccc32)cc1
2. O=C1Nc2ccccc2/C1=C/c1ccc(C(F)(F)F)cc1Cl

1: 0.971; 2: 0.97

Working through the 4 compounds below one at a time, give normalized growth for each.
1. O=C1Nc2ccccc2/C1=C\c1ccc(Cl)cc1
2. COc1ccc(/C=C2/C(=O)Nc3ccccc32)cc1
3. c1ccc(-c2nnc(-c3ccccn3)nc2-c2ccccc2)cc1
4. Cc1nnc2n1N=C(c1ccc(CC(C)C)cc1)C(C)S2 (configuration not stated)

1: 0.943; 2: 0.912; 3: 0.927; 4: 0.969
